target or system: T1, human amylin receptor (calcitonin receptor co-expressed with receptor activity modifying protein, RAMP3) (human, UniProt P30988 25-474; O60896 24-148)
T1 sequence (looked up) 1: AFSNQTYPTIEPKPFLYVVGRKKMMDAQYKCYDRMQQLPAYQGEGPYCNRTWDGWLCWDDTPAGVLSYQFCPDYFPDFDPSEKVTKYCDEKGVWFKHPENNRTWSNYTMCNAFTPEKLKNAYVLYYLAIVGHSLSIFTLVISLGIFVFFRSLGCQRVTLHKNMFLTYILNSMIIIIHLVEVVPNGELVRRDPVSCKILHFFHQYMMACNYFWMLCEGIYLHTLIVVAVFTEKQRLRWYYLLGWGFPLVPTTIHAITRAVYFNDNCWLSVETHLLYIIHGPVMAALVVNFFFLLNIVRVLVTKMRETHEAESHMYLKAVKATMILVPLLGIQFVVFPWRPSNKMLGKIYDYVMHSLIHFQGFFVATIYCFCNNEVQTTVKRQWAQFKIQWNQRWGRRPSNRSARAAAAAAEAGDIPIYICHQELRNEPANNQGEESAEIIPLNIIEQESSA
T1 sequence (looked up) 2: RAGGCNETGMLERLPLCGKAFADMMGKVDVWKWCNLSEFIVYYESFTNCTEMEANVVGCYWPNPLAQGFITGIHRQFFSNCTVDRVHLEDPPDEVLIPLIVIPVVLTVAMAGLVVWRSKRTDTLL
assay name: cell-based or functional assay
Numbered stars: 1 amine (or outer) side, 2 acyl side, 3 side chain; on linkers, the order of the positions; unused ones are H or OH. Bridge positions count the residues as written; N and C are the ends. Square brackets hold non-standard residues; d marks the D form. Side chains are listed from the residue outwards. Ends that are not written are not given here. * marks the point of attachment. C20 diacid = O=C(O)CCCCCCCCCCCCCCCCCCC(=O)*; C18 diacid = O=C(O)CCCCCCCCCCCCCCCCC(=O)*; γGlu = O=C(O)[C@H](CCC(=O)[*:2])N[*:1]; αMeF = C[C@](N)(Cc1ccccc1)C(=O)O; AEEA = NCCOCCOCC(=O)O
assay endpoint: Ratio (EC50 hCTR / EC50 hAMYR3)

Value of Ratio (EC50 hCTR / EC50 hAMYR3) reported for the binder K([γGlu-C18 diacid])CNTATCATQRLANFLVHSSNNFGPI[dL]PPTNVGSNTY-NH2 (disulfide 2-7) [Peptide 103 (SEQ ID NO: 103)] is 12

P = K([γGlu-γGlu-C18 diacid])CNTATCATQRLANFLRHSSNN[αMeF]GPILPPTEVGSNTY-NH2 (disulfide 2-7) [Peptide 18 (SEQ ID NO: 18)]
Q = K([γGlu-C18 diacid])KCNTATCATQRLANFLVHSSNN[αMeF]GPILPPTNVGSNTY-NH2 (disulfide 3-8) [Peptide 14 (SEQ ID NO: 14)]
R = K([γGlu-C18 diacid])CNTATCATQRLANFLVHSSNNFGPIL[dP]PTNVGSNTY-NH2 (disulfide 2-7) [Peptide 104 (SEQ ID NO: 104)]
Q. Reorder the items by Ratio (EC50 hCTR / EC50 hAMYR3), least to greatest. Please respond by ranking the labels in the order requested.
A. Q, P, R
(Q: 6, P: 15, R: 23)

A = {C18 diacid}-[γGlu]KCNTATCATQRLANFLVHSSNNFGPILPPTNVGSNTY-NH2 (disulfide 3-8) [Peptide 3 (SEQ ID NO: 3)]
B = K([γGlu-γGlu-C18 diacid])CNTATCATQRLANFLVHSSNNFGPILPPTNVGSNTY-NH2 (disulfide 2-7) [Peptide 5 (SEQ ID NO: 5)]
Q. // pick min by Ratio (EC50 hCTR / EC50 hAMYR3): A , B Select an item and report its label.
A. A

I = {C20 diacid-γGlu-AEEA-AEEA}-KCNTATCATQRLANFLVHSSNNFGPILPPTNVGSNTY-NH2 (disulfide 2-7) [Peptide 113 (SEQ ID NO: 113)]
II = {C18 diacid}-[γGlu][γGlu]GGGKCNTATCATQRLANFLVHSSNNFGPILPPTNVGSNTY-NH2 (disulfide 7-12) [Peptide 4 (SEQ ID NO: 4)]
Q. Hi, I'm comparing two records. Which one has the lower Ratio (EC50 hCTR / EC50 hAMYR3), I or II ? Pick one and reply with its label.
A. I
(I: 16, II: 30)
